# assayed-target: Procathepsin L (Homo sapiens)
# Sequence (P07711 whole entry): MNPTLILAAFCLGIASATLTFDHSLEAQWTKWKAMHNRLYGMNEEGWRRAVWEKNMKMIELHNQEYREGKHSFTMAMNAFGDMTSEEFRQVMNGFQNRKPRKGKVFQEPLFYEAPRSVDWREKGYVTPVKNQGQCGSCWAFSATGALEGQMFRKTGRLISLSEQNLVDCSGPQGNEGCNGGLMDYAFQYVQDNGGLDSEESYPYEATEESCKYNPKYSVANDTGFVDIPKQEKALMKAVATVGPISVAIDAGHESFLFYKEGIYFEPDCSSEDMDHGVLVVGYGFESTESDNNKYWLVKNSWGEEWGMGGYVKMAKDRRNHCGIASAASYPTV
# test-protocol: Inhibition of human liver cathepsin L using Z-FR-AMC as substrate measured at 1 min interval for 20 mins followed by every 15 mins for 2 hrs by fluorescence assay
pKi: −log10 of the molar value.

>  <compound-structure>
C[C@@H](Oc1ccc(Br)cc1Br)C(=O)NC/C=C/S(C)(=O)=O

>  <pKi>
3.84

$$$$

----------
# assayed-target: UniProt P07858
pKi: −log10 of the molar value.

>  <compound-structure>
O=C(N[C@H](/C=C/S(=O)(=O)c1ccccc1)CCc1ccccc1)[C@H](Cc1cc(I)c(O)c(I)c1)NC(=O)N1CCOCC1

>  <pKi>
6.47

$$$$
